Values were extracted from paper PMC11659602.

molecular target: PADI4 (Homo sapiens, UniProt Q9UM07); construct: His6; made in house; test: COLDER inhibition assay, BAEE substrate, with or without 1 h preincubation; format: biochemical; details: peptide 0.01 µM, T=0, values starred; read-out: PADI4 activity normalised to 0.1% DMSO
Sequence (Q9UM07 whole entry): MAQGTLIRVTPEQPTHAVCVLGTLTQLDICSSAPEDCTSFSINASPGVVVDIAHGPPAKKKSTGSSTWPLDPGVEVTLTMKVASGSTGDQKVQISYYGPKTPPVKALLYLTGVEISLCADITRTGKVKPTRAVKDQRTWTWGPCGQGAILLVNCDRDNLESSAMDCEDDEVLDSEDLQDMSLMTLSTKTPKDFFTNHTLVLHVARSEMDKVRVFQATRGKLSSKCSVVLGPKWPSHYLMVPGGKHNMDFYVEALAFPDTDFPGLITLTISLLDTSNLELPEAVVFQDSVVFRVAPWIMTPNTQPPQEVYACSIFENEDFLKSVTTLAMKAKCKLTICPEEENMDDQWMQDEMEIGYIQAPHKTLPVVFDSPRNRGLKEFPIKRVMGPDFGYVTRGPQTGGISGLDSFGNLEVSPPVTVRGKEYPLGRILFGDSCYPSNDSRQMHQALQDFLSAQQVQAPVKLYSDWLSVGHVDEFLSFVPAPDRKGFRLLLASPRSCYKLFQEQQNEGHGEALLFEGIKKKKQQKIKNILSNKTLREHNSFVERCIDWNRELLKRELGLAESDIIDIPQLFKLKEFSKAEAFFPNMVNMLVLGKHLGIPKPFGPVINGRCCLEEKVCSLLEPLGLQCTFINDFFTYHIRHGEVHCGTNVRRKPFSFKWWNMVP
Where a SMILES comes first, the peptide text is derived from it. Bridges are numbered along the chain shown (N, C = ends). [ ]: non-standard residue; d: D form. Orn(fluoroacetimidoyl) = N=C(CF)NCCC[C@H](N)C(=O)O
MEASUREMENT TYPE: remaining activity at 0.01 µM (%)
The answer is to be given in %; state only the numeric part.

Observe how each entry below is paired with its result.
- CC[C@H](C)[C@H](NC(=O)[C@H](Cc1c[nH]c2ccccc12)NC(=O)[C@H](CCC(=O)O)NC(=O)[C@@H]1CSCC(=O)N[C@H](Cc2ccc(O)cc2)C(=O)N[C@@H](C(C)C)C(=O)N[C@@H](Cc2ccc(O)cc2)C(=O)N[C@@H](CCCNC(=N)CF)C(=O)N[C@@H](CC(=O)O)C(=O)N1)C(=O)N[C@@H](CC(N)=O)C(=O)N[C@@H](CCCNC(=N)N)C(=O)N[C@@H](C)C(=O)NCC(N)=O [cP4_165, yVY(2)DCEWINRAG] ({CH2CO}-[dY]VY[Orn(fluoroacetimidoyl)]DCEWINRAG-NH2; thioether N-6): 94.1
- CC(C)[C@@H]1NC(=O)[C@@H](Cc2ccc(O)cc2)NC(=O)CSC[C@@H](C(=O)NCC(N)=O)NC(=O)[C@H](Cc2ccc(O)cc2)NC(=O)[C@H](CCCCN)NC(=O)[C@H](Cc2c[nH]c3ccccc23)NC(=O)[C@H](CCC(=O)O)NC(=O)[C@H](CCCCN)NC(=O)[C@H](CCCNC(=N)CF)NC(=O)[C@H](CO)NC(=O)[C@H](Cc2ccc(O)cc2)NC1=O [cP4_7, yVYS(2)KEWKYCG] ({CH2CO}-[dY]VYS[Orn(fluoroacetimidoyl)]KEWKYCG-NH2; thioether N-11): 99.2
- CC(C)C[C@@H]1NC(=O)[C@H](CCCCN)NC(=O)[C@H](CO)NC(=O)[C@H](CO)NC(=O)[C@H](Cc2ccc(O)cc2)NC(=O)[C@H](Cc2c[nH]cn2)NC(=O)[C@H](CCCNC(=N)CF)NC(=O)[C@H](CC(=O)O)NC(=O)[C@H](CC(C)C)NC(=O)[C@@H](Cc2ccc(O)cc2)NC(=O)CSC[C@@H](C(=O)NCC(N)=O)NC(=O)[C@H](Cc2ccc(O)cc2)NC1=O [cP4_15, yLD(2)HYSSKLYCG] ({CH2CO}-[dY]LD[Orn(fluoroacetimidoyl)]HYSSKLYCG-NH2; thioether N-12): 92.2
- CC[C@H](C)[C@@H]1NC(=O)[C@@H](Cc2ccc(O)cc2)NC(=O)CSC[C@@H](C(=O)NCC(N)=O)NC(=O)[C@H](CO)NC(=O)[C@H](CCCNC(=N)CF)NC(=O)[C@H](CC(=O)O)NC(=O)[C@H](CCCNC(=N)CF)NC(=O)[C@H](CC(C)C)NC(=O)CNC(=O)[C@H](Cc2c[nH]c3ccccc23)NC1=O [cP4_2, yIWGL(2)D(2)SCG] ({CH2CO}-[dY]IWGL[Orn(fluoroacetimidoyl)]D[Orn(fluoroacetimidoyl)]SCG-NH2; thioether N-10): 107

Requested field: remaining activity at 0.01 µM. Item: N=C(N)NCCC[C@@H]1NC(=O)[C@H](CCCCN)NC(=O)[C@H](CC(N)=O)NC(=O)[C@H](Cc2ccccc2)NC(=O)[C@H](CC(=O)O)NC(=O)[C@H](Cc2c[nH]c3ccccc23)NC(=O)[C@H](CC(N)=O)NC(=O)[C@H](CCCNC(=N)CF)NC(=O)[C@H](Cc2ccc(O)cc2)NC(=O)[C@H](Cc2c[nH]c3ccccc23)NC(=O)[C@@H](Cc2ccc(O)cc2)NC(=O)CSC[C@@H](C(=O)NCC(N)=O)NC1=O [cP4_10, yWY(2)NWDFNKRCG] ({CH2CO}-[dY]WY[Orn(fluoroacetimidoyl)]NWDFNKRCG-NH2; thioether N-12)
92

* * *

Biological target: PADI4 (Homo sapiens, UniProt Q9UM07)
Construct: His6; made in house
Test: COLDER inhibition assay, BAEE substrate, with or without 1 h preincubation
Format: biochemical
Conditions: peptide 0.3 µM, T=0; read-out: PADI4 activity normalised to 0.1% DMSO
Method: PADI4 citrullination activity was analysed using the COLDER assay in 96-well plates. Peptide dilutions were prepared from a 500 µM stock, to give a 10 times concentrated dilution series (500 µM, 300 µM, 100 µM, 30 µM, 10 µM, 3 µM, 1 µM, 0.3 µM, 0.1 µM and 0.03 µM) in COLDER buffer (50 mM HEPES, 150 mM NaCl and 2 mM DTT, pH 7.5) containing 1% DMSO. […] Samples were incubated for 20 min at 95 °C before measuring absorbance at 540 nm on a CLARIOstar Plus (BMG LABTECH). […]
Where a SMILES comes first, the peptide text is derived from it. Bridges are numbered along the chain shown (N, C = ends). [ ]: non-standard residue; d: D form. Orn(fluoroacetimidoyl) = N=C(CF)NCCC[C@H](N)C(=O)O
MEASUREMENT TYPE: remaining activity at 0.3 µM (%)
The answer is to be given in %; state only the numeric part.

Observe how each entry below is paired with its result.
- CC[C@H](C)[C@H](NC(=O)[C@H](Cc1c[nH]c2ccccc12)NC(=O)[C@H](CCC(=O)O)NC(=O)[C@@H]1CSCC(=O)N[C@H](Cc2ccc(O)cc2)C(=O)N[C@@H](C(C)C)C(=O)N[C@@H](Cc2ccc(O)cc2)C(=O)N[C@@H](CCCNC(=N)CF)C(=O)N[C@@H](CC(=O)O)C(=O)N1)C(=O)N[C@@H](CC(N)=O)C(=O)N[C@@H](CCCNC(=N)N)C(=O)N[C@@H](C)C(=O)NCC(N)=O [cP4_165, yVY(2)DCEWINRAG] ({CH2CO}-[dY]VY[Orn(fluoroacetimidoyl)]DCEWINRAG-NH2; thioether N-6): 99.2
- N=C(N)NCCC[C@@H]1NC(=O)[C@H](Cc2ccc(O)cc2)NC(=O)[C@H](Cc2c[nH]cn2)NC(=O)[C@H](CCCNC(=N)CF)NC(=O)[C@H](CC(=O)O)NC(=O)[C@H](CCCNC(=N)N)NC(=O)[C@@H](Cc2ccc(O)cc2)NC(=O)CSC[C@@H](C(=O)NCC(N)=O)NC(=O)[C@H](Cc2ccc(O)cc2)NC(=O)[C@H](CCCCN)NC(=O)[C@@H]2CCCN2C(=O)[C@H](Cc2c[nH]cn2)NC1=O [PADI4_3_H4(2), yRD(2)HYRHPKYCG] ({CH2CO}-[dY]RD[Orn(fluoroacetimidoyl)]HYRHPKYCG-NH2; thioether N-12): 96.2
- N=C(N)NCCC[C@@H]1NC(=O)[C@H](CCCNC(=N)CF)NC(=O)[C@H](CC(=O)O)NC(=O)[C@H](Cc2ccc(O)cc2)NC(=O)[C@H](CCCCN)NC(=O)[C@H](CO)NC(=O)[C@@H](Cc2ccc(O)cc2)NC(=O)CSC[C@@H](C(=O)NCC(N)=O)NC(=O)[C@H](CC(=O)O)NC(=O)[C@H](CCCNC(=N)N)NC(=O)[C@@H]2CCCN2C(=O)[C@H](CO)NC1=O [cP4_4, ySKYD(2)RSPRDCG] ({CH2CO}-[dY]SKYD[Orn(fluoroacetimidoyl)]RSPRDCG-NH2; thioether N-12): 87.5
- CC[C@H](C)[C@@H]1NC(=O)[C@@H](Cc2ccc(O)cc2)NC(=O)CSC[C@@H](C(=O)NCC(N)=O)NC(=O)[C@H](CO)NC(=O)[C@H](CCCNC(=N)CF)NC(=O)[C@H](CC(=O)O)NC(=O)[C@H](CCCNC(=N)CF)NC(=O)[C@H](CC(C)C)NC(=O)CNC(=O)[C@H](Cc2c[nH]c3ccccc23)NC1=O [cP4_2, yIWGL(2)D(2)SCG] ({CH2CO}-[dY]IWGL[Orn(fluoroacetimidoyl)]D[Orn(fluoroacetimidoyl)]SCG-NH2; thioether N-10): 106

Query remaining activity at 0.3 µM on PADI4 (Homo sapiens, UniProt Q9UM07) for CC(C)C[C@@H]1NC(=O)[C@H](CCCCN)NC(=O)[C@H](CO)NC(=O)[C@H](CO)NC(=O)[C@H](Cc2ccc(O)cc2)NC(=O)[C@H](Cc2c[nH]cn2)NC(=O)[C@H](CCCNC(=N)CF)NC(=O)[C@H](CC(=O)O)NC(=O)[C@H](CC(C)C)NC(=O)[C@@H](Cc2ccc(O)cc2)NC(=O)CSC[C@@H](C(=O)NCC(N)=O)NC(=O)[C@H](Cc2ccc(O)cc2)NC1=O [cP4_15, yLD(2)HYSSKLYCG] ({CH2CO}-[dY]LD[Orn(fluoroacetimidoyl)]HYSSKLYCG-NH2; thioether N-12)
82.7
